target: D(1A) dopamine receptor (Homo sapiens) (UniProt P21728); test: NVS_GPCR_hDRD1: NovaScreen (NVS) G Protein-Coupled Receptor Assay for human Dopamine Receptor D1 (DRD1) (AID 2283269)
Sequence (P21728 whole entry, looked up): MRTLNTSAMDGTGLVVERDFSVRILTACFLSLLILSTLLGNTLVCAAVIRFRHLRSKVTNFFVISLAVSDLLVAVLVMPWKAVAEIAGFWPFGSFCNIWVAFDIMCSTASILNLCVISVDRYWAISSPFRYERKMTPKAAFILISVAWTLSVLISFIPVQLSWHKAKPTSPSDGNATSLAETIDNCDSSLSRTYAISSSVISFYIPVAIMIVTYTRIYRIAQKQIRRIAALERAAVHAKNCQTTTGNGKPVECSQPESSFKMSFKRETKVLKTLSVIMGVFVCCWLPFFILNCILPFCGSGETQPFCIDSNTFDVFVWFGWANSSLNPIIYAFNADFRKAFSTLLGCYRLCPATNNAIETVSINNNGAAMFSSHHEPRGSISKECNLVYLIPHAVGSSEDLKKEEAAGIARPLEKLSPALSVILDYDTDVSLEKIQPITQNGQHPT
Results filed as inconclusive are left out. Calls of active or inactive are those of the source. Rule for the calls: active = hit-call score of the fitted dose curve at least 0.9, where 1 is the maximum; inconclusive = response in the unintended direction; inactive = score below 0.9.
Possible outcomes: active, inactive

1) Cc1cccc(N)c1N :: active
2) CCCCCCCCn1sccc1=O :: active
3) [Cl-].[Cl-].[Hg+2] :: active
4) CCOC(=O)[C@]1(c2ccccc2)Oc2ccccc2[C@@H]1N :: active
5) CCC[CH2][Sn]([Cl])([CH2]CCC)[CH2]CCC :: active
6) N#CC(Br)(Br)C(N)=O :: inactive
7) O=C(N[C@H](c1ccccc1)[C@@H]1CN2CCC1CC2)c1c(Cl)ccc(C(F)(F)F)c1Cl :: active

---

assay: APR_HepG2_CellLoss_72hr: Apredica 72-hour HepG2 Assay for Cell Loss (AID 2282915); conditions: high-content imaging
The source made the active and inactive calls. How the source made its calls: active means hit-call score of the fitted dose curve at least 0.9, where 1 is the maximum; inactive means score below 0.9.
Possible outcomes: active, inactive

1) CNC(=O)Oc1cccc2c1OC(C)(C)C2 :: inactive
2) CC(O)CCO (centres undefined) :: inactive
3) OCCOCCO :: inactive
4) CC(C)(C)OOC(=O)c1ccccc1 :: active
5) C1=Cc2cccc3cccc1c23 :: inactive
6) Cc1ccc(N=C=O)cc1N=C=O :: inactive
7) OCCCl :: inactive
8) c1ccc2c(c1)-c1cccc3cccc-2c13 :: active
9) CCC(C)c1ccc(O)cc1 (centres undefined) :: inactive
10) [Cl-].[Cl-].[Hg+2] :: active
11) CCCCCCCCCCCCCN1CC(C)OC(C)C1 (centres undefined) :: active
12) CS(=O)(=O)NC(=O)c1cc(Oc2ccc(C(F)(F)F)cc2Cl)ccc1[N+](=O)[O-] :: inactive
13) COc1cc(C=O)cc2c1[C@H](COC(N)=O)[C@]1(OC(C)=O)ON2C[C@H]2[C@@H]1N2C(C)=O :: inactive
14) CCCCCOC(=O)c1ccccc1C(=O)OCCCCC :: active

---

experiment: ATG_FoxO_CIS: Attagene CIS-FACTORIAL HepG2 Assay for human Forkhead box O (FoxO) (AID 2282943); settings: HepG2 Attagene cis-reporter, FoxO element, mRNA; actives raise or lower the signal
Calls of active or inactive are those of the source. Rule for the calls: active = hit-call score of the fitted dose curve at least 0.9, where 1 is the maximum; inactive = score below 0.9.
observed_property: AC50

1) OCCOCCO :: inactive
2) CO[C@@H]1[C@H](OC(=O)NC(=O)CCl)CC[C@]2(CO2)[C@H]1[C@@]1(C)O[C@@H]1CC=C(C)C :: inactive
3) Cc1ccc([N+](=O)[O-])cc1 :: inactive
4) O=C(Nc1ccccc1)c1ccccc1I :: inactive
5) COC(=O)c1ccccc1N :: inactive
6) Cc1ccc(N)c(N)c1 :: inactive
7) O=P(OCCCl)(OCCCl)OCCCl :: inactive
8) CC(C)(OOC(C)(C)c1ccccc1)c1ccccc1 :: inactive
9) CCOC(=O)[C@]1(c2ccccc2)Oc2ccccc2[C@@H]1N :: 49.5 µM (active)
10) [Cl-].[Cl-].[Hg+2] :: inactive
11) CCCCCOC(=O)c1ccccc1C(=O)OCCCCC :: inactive
12) CCN(CC)N=O :: inactive
13) CCOc1cccc(C2(N3CCN(c4ccccc4)CC3)CCC(C)CC2)c1 (centres undefined) :: inactive
14) Nc1ccc(Oc2ccc(N)cc2)cc1 :: inactive

---

target: human Protein Tyrosine Phosphatase Non-receptor Type 6 (PTPN6), PTPN6 (gene 5777); test: NVS_ENZ_hPTPN6: NovaScreen (NVS) Enzymatic Assay for human Protein Tyrosine Phosphatase Non-receptor Type 6 (PTPN6) (AID 2283210)
Results filed as inconclusive are left out. Calls of active or inactive are those of the source. The calls were made as follows: active = hit-call score of the fitted dose curve at least 0.9, where 1 is the maximum; inconclusive = response in the unintended direction; inactive = score below 0.9.
Possible outcomes: label 1 (active), label 0 (inactive)

1) CN(C)[C@@H]1C(=O)C(C(N)=O)=C(O)[C@@]2(O)C(=O)C3=C(O)c4c(O)cccc4[C@@](C)(O)[C@H]3C[C@@H]12 :: label 1
2) c1ccc(C2CO2)cc1 (stereo not given) :: label 0
3) O=[N+]([O-])c1ccc(Oc2ccc(Cl)cc2Cl)cc1 :: label 0
4) CCC(C)c1ccc(O)cc1 (stereo not given) :: label 0
5) CC(C)(C)OOC(C)(C)CCC(C)(C)OOC(C)(C)C :: label 1
6) C[N+](C)(C)CC1CO1 (stereo not given) :: label 0
7) CC(C)(OOC(C)(C)c1ccccc1)c1ccccc1 :: label 0
8) OCCCBr :: label 0
9) O=P(OCCCl)(OCCCl)OCCCl :: label 0
10) Clc1ccc(C(c2ccc(Cl)cc2)C(Cl)(Cl)Cl)cc1 :: label 0

---

read-out: Low-density lipoprotein receptor (LDLR), LDLR (gene 3949); assay: BSK_CASM3C_LDLR: BioMAP Diversity Plus: CASM3C Assay for Low-density lipoprotein receptor (LDLR) Biomarker Activity (AID 2283045); details: primary human coronary artery smooth muscle cells; actives raise or lower the signal;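 note: LDLR protein level on the cell surface quantified by ELISA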
Active and inactive are the calls of the source. Rule for the calls: active = hit-call score of the fitted dose curve at least 0.9, where 1 is the maximum; inactive = score below 0.9.
observed_property: AC50

1) c1ccc(C2CO2)cc1 (configuration not stated) :: inactive
2) C[C@]12C=CC3=C4CCC(=O)C=C4CC[C@H]3[C@@H]1CC[C@@H]2O :: inactive
3) CS(=O)(=O)NC(=O)c1cc(Oc2ccc(C(F)(F)F)cc2Cl)ccc1[N+](=O)[O-] :: inactive
4) COC(=O)c1ccccc1N :: inactive
5) CN(C)[C@@H]1C(=O)C(C(N)=O)=C(O)[C@@]2(O)C(=O)C3=C(O)c4c(O)cccc4[C@@](C)(O)[C@H]3C[C@@H]12 :: inactive
6) Cc1ccc(N)cc1 :: inactive
7) COP(=S)(OC)SCN1C(=O)c2ccccc2C1=O :: inactive
8) Cc1ccc(N)c(N)c1 :: inactive
9) CC(C)N(Cc1ccccc1)C(=O)C(C)(C)C :: inactive
10) CCCCCCCCn1sccc1=O :: 12.8 µM (active)
11) Cc1cccc(N)c1N :: inactive
12) Oc1ccc2ccc3cccc4ccc1c2c34 :: 10.5 µM (active)
13) COC(=O)Nc1nc2ccccc2[nH]1 :: inactive
14) CC(C)(C)OOC(C)(C)CCC(C)(C)OOC(C)(C)C :: inactive
15) c1ccc(NNc2ccccc2)cc1 :: inactive
16) CNC(=O)Oc1cccc2c1OC(C)(C)C2 :: inactive
17) ClC1=C(Cl)C2(Cl)C3C(Cl)C=CC3C1(Cl)C2(Cl)Cl (configuration not stated) :: 31.8 µM (active)
18) O=[N+]([O-])c1ccc(Oc2ccc(Cl)cc2Cl)cc1 :: inactive
19) CCOC(=O)[C@]1(c2ccccc2)Oc2ccccc2[C@@H]1N :: 23.4 µM (active)
20) c1ccc2c(c1)oc1ccccc12 :: inactive
21) CCCSC(=O)N(CCC)CCC :: inactive
22) Oc1ccccc1Cl :: inactive
23) CC(O)CCO (configuration not stated) :: inactive
24) CCNS(=O)(=O)C(F)(F)C(F)(F)C(F)(F)C(F)(F)C(F)(F)C(F)(F)C(F)(F)C(F)(F)F :: inactive
25) CC(C)(OOC(C)(C)c1ccccc1)c1ccccc1 :: inactive
26) CCC(C)c1ccc(O)cc1 (configuration not stated) :: inactive
27) CO[C@@H]1[C@H](OC(=O)NC(=O)CCl)CC[C@]2(CO2)[C@H]1[C@@]1(C)O[C@@H]1CC=C(C)C :: inactive
28) Clc1ccc(C(c2ccc(Cl)cc2)C(Cl)Cl)cc1 :: 5.11 µM (active)
29) Nc1ccc(Cc2ccc(N)cc2)cc1 :: inactive
30) Cc1ccc(N=C=O)cc1N=C=O :: inactive
31) OCCCl :: inactive
32) [O-][Cl+]O :: inactive
33) O=C(Nc1ccccc1)c1ccccc1I :: inactive
34) c1ccc2c(c1)-c1cccc3cccc-2c13 :: inactive
35) N#CC(Br)(Br)C(N)=O :: inactive
36) OCCCBr :: inactive
37) CC(C)COC(=O)c1ccccc1C(=O)OCC(C)C :: inactive
38) Cc1ccc([N+](=O)[O-])cc1 :: inactive
39) CCOc1cccc(C2(N3CCN(c4ccccc4)CC3)CCC(C)CC2)c1 (configuration not stated) :: inactive
40) Clc1ccccc1Cl :: inactive
41) Clc1ccc(C(c2ccc(Cl)cc2)C(Cl)(Cl)Cl)cc1 :: 32.1 µM (active)
42) C=CCc1ccc2c(c1)OCO2 :: inactive
43) [As]#[In] :: inactive
44) CN(C)c1ccccc1 :: inactive
45) CCC12COCN1COC2 :: inactive
46) O=C(N[C@H](c1ccccc1)[C@@H]1CN2CCC1CC2)c1c(Cl)ccc(C(F)(F)F)c1Cl :: 25 µM (active)
47) ClCCOCCCl :: inactive

---

read-out: CD38, CD38 (gene 952); assay: BSK_SAg_CD38: BioMAP Diversity Plus: SAg Assay for CD38 Biomarker Activity (AID 2283087); settings: primary human HUVEC with PBMC; actives raise or lower the signal
Activity calls are given as the source filed them. The calls were made as follows: active = hit-call score of the fitted dose curve at least 0.9, where 1 is the maximum; inactive = score below 0.9.
Possible outcomes: Yes (active), No (inactive)

1. CNC(=O)Oc1cccc2c1OC(C)(C)C2 :: No
2. O=C1CCCO1 :: No
3. COP(=S)(OC)SCN1C(=O)c2ccccc2C1=O :: No
4. c1ccc2c(c1)oc1ccccc12 :: No
5. Clc1ccc(Cl)c(Cl)c1 :: No
6. Oc1ccccc1Cl :: No
7. CN(C)[C@@H]1C(=O)C(C(N)=O)=C(O)[C@@]2(O)C(=O)C3=C(O)c4c(O)cccc4[C@@](C)(O)[C@H]3C[C@@H]12 :: No
8. CCCSC(=O)N(CCC)CCC :: No
9. N#CC(Br)Br :: No
10. Nc1ccc(Cl)cc1N :: Yes
11. CC(C)N(Cc1ccccc1)C(=O)C(C)(C)C :: No
